B1: glmS ribozyme (parent)
chain: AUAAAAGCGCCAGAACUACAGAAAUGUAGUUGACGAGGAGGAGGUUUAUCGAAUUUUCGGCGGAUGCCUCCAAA

variants of: B1; assay: self-cleavage kobs at 160 uM GlcN6P; higher = faster cleavage; RNA array; settings: with glucosamine-6-phosphate
Fewer inactive variants are shown than the library holds.
reportedEndpoint: self-cleavage kobs at 160 uM GlcN6P

[[record]]
sequencecode = "AUAAAAGCUCCAGAACUACAGAAAUGUAGUUGACGAGGAGGAGGUUUAUCGAAUUUUGGGCGUAUGCCUCCAAA"
reading = "< 1e-05 s⁻¹"

[[record]]
sequencecode = "AUAAAAGCGCCAGAAGUACAGAAAUGUAGUUGACGAGGAGGAGCUUUAUCGAAUUUUCGGCGGAUGCUUCCAAA"
reading = "< 1e-05 s⁻¹"

[[record]]
sequencecode = "AUAAAAGCGCCGGAGCUACAGAAAUGUAAUUCACGAUGAGGAGGUUUAUCGAAUUUUCGGCGGAUGCCUCCAAA"
reading = "< 1e-05 s⁻¹"

[[record]]
sequencecode = "AUAAAAGCCCCAGAACUACAGAAAUGUAGUUGACGAGGAGGAGGUUUAUCGAAUUAUCGGCGGAUGCCUCCAAA"
reading = "< 1e-05 s⁻¹"

[[record]]
sequencecode = "AUAAAAGCGCCAGAACUACAGAAAUGUAUUUGACGAGGAGGAGGUUUAUCGGAUUUUCGGGGGAUGCUACCAAA"
reading = "4.87e-05 s⁻¹"

[[record]]
sequencecode = "AUAAAAGCGCCAGAAGUACAGAAAUGUAGUUGACGAGGAGGAGGUUUAUCGAAUUUUCGGCCGAUGCCUCCAAA"
reading = "< 1e-05 s⁻¹"

[[record]]
sequencecode = "AUAAAAGCGCCAGAACUACAGAAAUGUAGUUGACGAUGAGGAGGUUUCUCGAAUUUUCGGCGGAUGCUUCCAAA"
reading = "< 1e-05 s⁻¹"

[[record]]
sequencecode = "AUAAAAGCGCCAGAACUACAGAAAUGUAGUUGGCGAGGACGAGGUUUAUCGAAUUUUCGGCGUAUGCCUCCAAA"
reading = "< 1e-05 s⁻¹"

[[record]]
sequencecode = "AUAAAAGCGGCAGAACUACAGAAAUGUAGUUUACGAGGAGGAGGUUUAUCGAAGUUUCGGCGGAUGCAUCCAAA"
reading = "5.61e-05 s⁻¹"

[[record]]
sequencecode = "AUAAAAACGCCAGAACUACAGAAAUGUAGUUUACGAGGAGGACGUUUAUCGAAUUUUCGGCGGAUGCCUCCAAA"
reading = "< 1e-05 s⁻¹"

